# Target: PDE1C (Homo sapiens, UniProt Q14123)
# Construct: made in house; host or cells: SF9 insect cells (crude lysate used as enzyme source)
# Assay summary: PDE enzymatic activity assay (SPA), PDE1C, cAMP as substrate
# Type: biochemical
# Test settings: ratio IC50 PDE1C / IC50 PDE9A; for illustrative purposes
Outcome measure: Selectivity = IC50 PDE 1C/IC50 PDE9A (both nanomolar)
I only need the number, thanks.

Worked examples, 3 compounds total:
*Q* Look up Selectivity = IC50 PDE 1C/IC50 PDE9A (both nanomolar) with PDE1C (Homo sapiens, UniProt Q14123) for this compound: Cc1c(F)cccc1-n1ncc2c(=O)[nH]c(Cc3ccccc3OC(F)(F)F)nc21
*A* 8

*Q* Request - read-out Selectivity = IC50 PDE 1C/IC50 PDE9A (both nanomolar) | tested on PDE1C (Homo sapiens, UniProt Q14123) | compound CN(C)C(=O)c1ccc(Cl)c(-n2ncc3c(=O)[nH]c(Cc4ccccc4OC(F)(F)F)nc32)c1
*A* 54

*Q* What value of Selectivity = IC50 PDE 1C/IC50 PDE9A (both nanomolar) on PDE1C (Homo sapiens, UniProt Q14123) does O=c1[nH]c(Cc2ccccc2OC(F)(F)F)nc2c1cnn2-c1ccc(F)cc1O have?
*A* 8

Further cases:
*Q* For PDE1C (Homo sapiens, UniProt Q14123), provide Selectivity = IC50 PDE 1C/IC50 PDE9A (both nanomolar) of O=c1[nH]c(Cc2ccccc2OC(F)(F)F)nc2c1cnn2-c1cc(Cl)ccc1Br please.
*A* 21
